Reference source: PubChem BioAssay (NCI)

Reported TGI values for the following compounds.
- System: HCT-116 colon
- method summary: NCI tumour cell line growth inhibition, 48 h
Report only the number, with the unit µM understood.

Item COc1cccc2c1C(=O)c1c(O)c3c(c(O)c1C2=O)CC(O)(C(O)CO)CC3OC1CC(N2CCOCC2)C(O)C(C)O1 (centres undefined) has what recorded TGI?
0.143

// same read-out, input: `CNc1ccc2c(c1)[C@@]1(C)c3ccccc3[C@@H](C2)N1C`
33.4

// same read-out, input: CCC(C)C1=C(OC(C)=O)[N+]2([O-])Oc3ccc(-c4c(OC(C)=O)c(OC(C)=O)c(-c5ccc(OC(C)=O)cc5)c(OC(C)=O)c4OC(C)=O)cc3OC2(C(C)CC)C(=O)N1OC(C)=O (centres undefined)
22.8

// same read-out, input: `CCCc1cc(=O)[nH]c(-n2nc(C)cc2C)n1`
67.3

// same read-out, input: `COc1cccc2c1Cc1cc(-c3ccccc3)[n+](C)n1-2`
15.8

// same read-out, input: `COc1cccc2c1ccc1nc3cccc(C(=O)N[C@H](C)CN(C)C)c3nc12`
0.508

---

Reported TGI values for the following compounds.
- Test system: K-562 leukemia
- method summary: NCI tumour cell line growth inhibition, 48 h

Item `CC(=O)C(=Cc1ccc(C=C(C(C)=O)C(C)=O)cc1)C(C)=O` has what recorded TGI?
6.12 µM

// same read-out, input: CCC1CN2C(=N1)c1ccccc1-c1cc(Cl)ccc12 (centres undefined)
7.1 µM

// same read-out, input: O=C(O)C1OC1(c1cccc(Cl)c1)c1ccccc1Cl (centres undefined)
87.6 µM

// same read-out, input: `Cc1ccccc1C(=O)N/N=C/c1ccc(Sc2nccn2C)c([N+](=O)[O-])c1`
> 100 µM

// same read-out, input: `NC(=O)c1ccccc1Nc1ccc2nnc(-c3ccncc3)n2n1`
60.4 µM

Further cases:
Item `CC[C@@H]1CC[C@@H]2[C@H](CC[C@]3(C)[C@@H](OS(=O)(=O)c4ccc(C)cc4)CC[C@@H]23)[C@H]1COS(=O)(=O)c1ccc(C)cc1` has what recorded TGI?
> 100 µM

// same read-out, input: `COc1ccc(-n2c(=O)[nH]n(C(C)=O)c2=O)cc1`
> 100 µM

// same read-out, input: `C1=CC=C2NCCCCCCCNC3=CC=CC=CC3=NCCCCCCCN=C2C=C1`
> 100 µM

// same read-out, input: C=CCC(N(C)C(=O)[C@H](Cc1ccccc1)NC(=O)OCc1ccccc1)P(=O)(Oc1ccccc1)Oc1ccccc1 (some centres undefined)
> 100 µM

// same read-out, input: `Cc1cc(N(CCC#N)CCC#N)ccc1/C(N=Nc1ccc(C(=O)O)cc1)=N\NC(=O)c1cc(Cl)ccc1O`
> 100 µM

---

- System: OVCAR-8 ovarian
- method summary: NCI tumour cell line growth inhibition, 48 h
experimental endpoint: TGI

Solved entries (count: 2):
Item `O=c1ccn([C@@H]2C[C@@H]2CO)c(=O)[nH]1` has what recorded TGI?
> 100 µM

// same read-out, input: CCC1CN(C(=O)c2ccccc2)C(Cc2c[nH]c3ccccc23)C(=O)C1CC(=O)OC (stereo unspecified)
> 100 µM

Further cases:
Item Cc1nn(C(=O)Cc2ccccc2)c2c1C(c1ccc(O)cc1O)SC(N)=N2 (stereo unspecified) has what recorded TGI?
> 100 µM

// same read-out, input: `C[C@]12CCc3sc(NCCc4ccccc4)nc3C1=CC[C@@H]1[C@@H]2CC[C@]2(C)C(=O)CC[C@@H]12`
> 100 µM

// same read-out, input: `CCOC(=O)c1nc2ccccc2nc1NCc1cc(OC)c(OC)c(OC)c1`
> 100 µM

// same read-out, input: `CCN(CC(=O)O)C(=O)c1cccnc1`
> 100 µM

// same read-out, input: C#CC1(O)C(COP(=O)(O)OC(COCCCCCCCCCCCCCCCCCC)COP(=O)(O)OCC2OC(n3cc(F)c(=O)[nH]c3=O)CC2O)OC(n2ccc(N)nc2=O)C1O (stereo unspecified)
> 60.9 µM

---

- System: HT29 colon
- method summary: NCI tumour cell line growth inhibition, 48 h; in the data active means GI50 below about 0.43 µM; inactive means the rest
Answer with one of the outcomes active, inactive

Consider the following illustrative entries.
Write down the call the test reported for this compound. Item: `N.N.N.N.N.[Cl-].[Co+3].c1ccc(-c2nn[n-]n2)cc1`
inactive

// same read-out, input: `COc1ccc(/C=C/C(=O)c2ccc(O)c(CN3CCN(c4cc5c(cc4F)c(=O)c(C(=O)O)cn5C4CC4)CC3)c2)cc1`
inactive

// same read-out, input: COC1/C=C/C(C)C(C(C)C(OC)C(C)CCC(=O)C(C)C(C/C=C/N(C)C=O)OC)OC(=O)/C=C/C=C(\C)CC(OC)CC2=CC(=O)O[C@H](C2)C(C)C(OC)CC(OC)/C=C/C(C)C(OC)C1 (stereo partly drawn)
active

// same read-out, input: `COc1cccc2c1ccc1nc3cccc(C(=O)N[C@H](C)CN(C)C)c3nc12`
active

// same read-out, input: `COc1cccc(-c2nn(-c3ccccc3)cc2-c2ccnc(NCCCNC(=O)Nc3ccc(Cl)c(Cl)c3)c2)c1`
inactive

// same read-out, input: `COc1cc2c3c(n(CCCCN)c(=O)c2cc1OC)-c1cc2c(cc1C3=O)OCO2`
inactive

// same read-out, input: CCCCCCCCC/C=C/C=C/C(=O)NCC(=O)NC1C(O)C(O)C(Nc2ncnc3nc[nH]c23)OC1C(O)CO (stereo not drawn)
active

// same read-out, input: `Cc1cc(NCCN(C(C)C)C(C)C)nc(/N=C(\N)Nc2ccc(Cl)c(C(F)(F)F)c2)n1`
active

Further cases:
Write down the call the test reported for this compound. Item: `NC(=O)c1ccc(I)c(N=O)c1`
inactive

// same read-out, input: `O=C(Cn1c(=O)c(-c2ccccc2)nc2ccccc21)Nc1ccc(F)cc1`
inactive

// same read-out, input: `O=C1c2cccc(NCCN=Cc3cc([N+](=O)[O-])ccc3O)c2C(=O)c2c(NCCN=Cc3cc([N+](=O)[O-])ccc3O)cccc21`
inactive

// same read-out, input: `CCn1cnc(C[C@H](NC(=O)[C@@H](NC(=O)Nc2cc(C(F)(F)F)cc(C(F)(F)F)c2)C(C)C)C(=O)OC)c1`
inactive

// same read-out, input: Nc1nc(N)c2nc(CNc3ccc(C(=O)NC(CC(=O)O)C(=O)O)cc3)cnc2n1 (stereo not drawn)
inactive

// same read-out, input: `CN1CCN(CCOc2ccc(-c3cnc4c(-c5ccc(C(F)(F)F)cc5)cnn4c3)cc2)CC1`
inactive

// same read-out, input: `O=c1cc(-c2ccccc2F)[nH]c2ccc(N3CCCC3)cc12`
active

// same read-out, input: `O=c1oc(Cl)c(Cl)c2ccccc12`
inactive

// same read-out, input: `COc1ccc(-c2nc(-c3ccccc3)c(-c3ccccc3)[nH]2)cc1OC1CCCC1`
inactive

// same read-out, input: `CNCCCn1c2c(c3ccc([N+](=O)[O-])cc3c1=O)C(=O)c1cc(OC)cnc1-2`
active

// same read-out, input: `Cc1ccc(-c2nc(C#N)c(S(=O)(=O)n3nc(C)cc3N)o2)cc1`
inactive

// same read-out, input: `C[C@]12CCc3sc(NCCc4ccccc4)nc3C1=CC[C@@H]1[C@@H]2CC[C@]2(C)C(=O)CC[C@@H]12`
inactive

// same read-out, input: C=CCC1(O)c2ccccc2C(=O)c2c(NCCN(CC(=O)OCC)CC(=O)OCC)cccc21 (stereo not drawn)
inactive

// same read-out, input: `COc1cccc(-n2nc(C)c3c(N/N=C(\C)c4ccncc4)ncnc32)c1`
inactive

// same read-out, input: `CCCCC[C@H]1C/C=C2/C(=O)C=C[C@@H]2C/C=C\CCCC(=O)O[C@@H](CCCCC)C/C=C2/C(=O)C=C[C@@H]2C/C=C\CCCC(=O)O1`
active

---

- Tested on: SN12C renal
- method summary: NCI tumour cell line growth inhibition, 48 h
experimental endpoint: TGI

Solved entries (count: 5):
What reported TGI corresponds to `COc1cc(-c2cc(-c3ccccc3)nc(-c3c(OC)ccc4c(C)cc(=O)oc34)c2)cc(OC)c1OC` on SN12C renal?
> 100 µM

// same read-out, input: CC1OC(OC2C[C@](O)(C(=O)CF)Cc3c(O)c4c(c(O)c32)C(=O)c2ccccc2C4=O)CC(N)C1O (stereo partly specified)
0.338 µM

// same read-out, input: `C[C@]12CCc3sc(NCCc4ccccc4)nc3C1=CC[C@@H]1[C@@H]2CC[C@]2(C)C(=O)CC[C@@H]12`
> 100 µM

// same read-out, input: OCC1C(/C=C/c2ccoc2)ON2CCCC12 (stereo unspecified)
> 100 µM

// same read-out, input: `COc1cc2c(cc1OCCCCN1C(=O)c3cccc4cccc(c34)C1=O)N=C[C@@H]1CCCN1C2=O`
17.7 µM

Switching to the query record.
What reported TGI corresponds to `O=CN/C=C/c1cccc(O)c1` on SN12C renal?
> 100 µM
